# System: MCF-7 (breast carcinoma)
# experimental.protocol: MTT cell viability assay, MCF-7
# condition.info: SI = CC50(MRC-5)/IC50(MCF-7)
Quick reference for Selectivity index (SI) among some compounds

compound	Selectivity index (SI)
CC1=CC[C@@]2(C)CC[C@H](C(C)C)[C@@]2(O)CC1 [Carotol]	2.57
COc1cccc2c1C(=O)c1c(O)c3c(c(O)c1C2=O)C[C@@](O)(C(=O)CO)C[C@@H]3O[C@H]1C[C@H](N)[C@H](O)[C@H](C)O1 [Doxorubicin, doxorubicin, reference compound]	14.31
CC(C)(O)[C@H]1[C@@H](O)C[C@]2(C)C[C@H](O)[C@]3(C)CC[C@]12O3 [CM2, 9α,13-dihydroxydaucol]	1.16
CC(C)[C@H]1CC[C@]2(C)C[C@H](O)[C@@](C)(O)CC[C@]12O [CM3]	1.31
CC(C)C1C(O)CC2(C)CC(O)C3(C)CCC12O3 (stereo not drawn) [CM1, 9α-hydroxydaucol]	1.16

====

# System: A-549 (lung carcinoma)
# experimental.protocol: MTT cell viability assay, A-549
# condition.info: Homo sapiens, A549, 24 h, read-out: Cytotoxic activity IC50 ± SD
Rule for this label: T means IC50 is less than 30 µM; F means IC50 is at least 30 µM.

molecule	group.label
CC1=CC[C@@]2(C)CC[C@H](C(C)C)[C@@]2(O)CC1	T
CC(C)[C@H]1CC[C@]2(C)C[C@H](O)[C@@](C)(O)CC[C@]12O	F
COc1cccc2c1C(=O)c1c(O)c3c(c(O)c1C2=O)C[C@@](O)(C(=O)CO)C[C@@H]3O[C@H]1C[C@H](N)[C@H](O)[C@H](C)O1 [Doxorubicin, doxorubicin, reference compound]	T
CC(C)C1C(O)CC2(C)CC(O)C3(C)CCC12O3 (stereo not drawn) [CM1, 9α-hydroxydaucol]	F
CC(C)(O)[C@H]1[C@@H](O)C[C@]2(C)C[C@H](O)[C@]3(C)CC[C@]12O3 [CM2, 9α,13-dihydroxydaucol]	F

====

# experimental.protocol: in vitro
# condition.info: human
readout.label: IC50 at 24 h (µM)

compound	value
CC(C)(O)[C@H]1[C@@H](O)C[C@]2(C)C[C@H](O)[C@]3(C)CC[C@]12O3 [CM2, 9α,13-dihydroxydaucol]	248
CC(C)C1C(O)CC2(C)CC(O)C3(C)CCC12O3 (stereo not drawn) [CM1, 9α-hydroxydaucol]	466
CC1=CC[C@@]2(C)CC[C@H](C(C)C)[C@@]2(O)CC1	176
CC(C)[C@H]1CC[C@]2(C)C[C@H](O)[C@@](C)(O)CC[C@]12O	316

====

# System: HCT-116 (colon carcinoma)
# experimental.protocol: MTT cell viability assay, HCT-116
# condition.info: SI = CC50(MRC-5)/IC50(HCT-116)
Recorded Selectivity index (SI) by entry
readout.label: Selectivity index (SI)

compound	value
CC(C)C1C(O)CC2(C)CC(O)C3(C)CCC12O3 (stereo not drawn) [CM1, 9α-hydroxydaucol]	1.37
CC(C)[C@H]1CC[C@]2(C)C[C@H](O)[C@@](C)(O)CC[C@]12O	1.40
CC(C)(O)[C@H]1[C@@H](O)C[C@]2(C)C[C@H](O)[C@]3(C)CC[C@]12O3 [CM2, 9α,13-dihydroxydaucol]	1.37
CC1=CC[C@@]2(C)CC[C@H](C(C)C)[C@@]2(O)CC1	6.85
COc1cccc2c1C(=O)c1c(O)c3c(c(O)c1C2=O)C[C@@](O)(C(=O)CO)C[C@@H]3O[C@H]1C[C@H](N)[C@H](O)[C@H](C)O1 [Doxorubicin, doxorubicin, reference compound]	14.66
